assay: Duration of action (t1/2); details: in vivo; read-out: Duration of action (t1/2 in hours) (converted)
Observation Type: half-life

                                   molecule  observation_type  recorded_result
0  C[C@]12C=CC(=O)C=C1CC[C@@H]1[C@@H]2C(=O)C[C@@]2(C)[C@H]1CC[C@]2(O)C(=O)CO [Prednisone]         half-life       16 to 36 h
1  C[C@H]1C[C@@H]2[C@H]([C@@H](O)C[C@@]3(C)[C@H]2CC[C@]3(O)C(=O)CO)[C@@]2(C)C=CC(=O)C=C12 [Methylprednisolone]         half-life       18 to 40 h
2  C[C@]12C=CC(=O)C=C1CC[C@@H]1[C@@H]2[C@@H](O)C[C@@]2(C)[C@H]1CC[C@]2(O)C(=O)CO [Prednisolone]         half-life       16 to 36 h
3  C[C@]12CCC(=O)C=C1CC[C@@H]1[C@@H]2[C@@H](O)C[C@@]2(C)[C@H]1CC[C@]2(O)C(=O)CO [Hydrocortisone (cortisol), Hydrocortisone]         half-life              8 h

Now consider the entry below.
Quick note, half-life for C[C@]12C=CC(=O)C=C1CC[C@H]1[C@@H]3C[C@@H](O)[C@](O)(C(=O)CO)[C@@]3(C)C[C@H](O)[C@@]12F [Triamcinolone] landed at 12 to 36 h

----------
molecular target: glucocorticoid receptor (Homo sapiens, UniProt P04150); experiment: Glucocorticoid receptor activity (GR potency) of corticosterones; conditions: relative potency, hydrocortisone (cortisol) = 1
Sequence (P04150 whole entry, species assumed): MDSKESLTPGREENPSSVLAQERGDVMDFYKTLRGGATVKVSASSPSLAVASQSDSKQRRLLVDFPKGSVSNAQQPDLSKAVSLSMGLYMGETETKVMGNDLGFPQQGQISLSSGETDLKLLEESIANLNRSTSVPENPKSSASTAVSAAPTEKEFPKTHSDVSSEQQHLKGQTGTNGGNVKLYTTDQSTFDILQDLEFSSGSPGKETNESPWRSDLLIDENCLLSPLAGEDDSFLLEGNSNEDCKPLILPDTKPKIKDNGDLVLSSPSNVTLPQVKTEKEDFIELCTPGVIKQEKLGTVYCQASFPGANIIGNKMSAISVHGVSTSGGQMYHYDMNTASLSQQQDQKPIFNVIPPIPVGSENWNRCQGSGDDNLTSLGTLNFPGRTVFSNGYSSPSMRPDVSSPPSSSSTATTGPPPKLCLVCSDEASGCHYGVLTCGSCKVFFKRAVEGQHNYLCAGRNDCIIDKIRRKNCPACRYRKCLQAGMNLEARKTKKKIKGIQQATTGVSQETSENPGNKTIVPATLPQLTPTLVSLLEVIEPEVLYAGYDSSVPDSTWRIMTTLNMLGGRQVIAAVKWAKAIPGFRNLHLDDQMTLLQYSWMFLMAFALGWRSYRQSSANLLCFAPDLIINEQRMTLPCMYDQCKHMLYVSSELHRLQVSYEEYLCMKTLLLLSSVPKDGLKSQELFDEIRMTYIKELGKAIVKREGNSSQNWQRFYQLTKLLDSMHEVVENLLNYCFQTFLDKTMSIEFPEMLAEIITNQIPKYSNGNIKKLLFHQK
Given measured GR potency, output satisfied if it is greater than or equal to 0.8 and not satisfied if not.

Recorded results for 3 compounds are shown here.
>>> print(df.to_string())
                                   compound  assigned_class
0  C[C@]12C=CC(=O)C=C1CC[C@H]1[C@@H]3C[C@@H](O)[C@](O)(C(=O)CO)[C@@]3(C)C[C@H](O)[C@@]12F       satisfied
1  CC(=O)OCC(=O)[C@H]1CC[C@H]2[C@@H]3CCC4=CC(=O)CC[C@]4(C)[C@H]3CC[C@]12C [DCSA, deoxycorticosterone acetate]   not satisfied
2  C[C@]12CCC(=O)C=C1CC[C@@H]1[C@@H]2[C@@H](O)C[C@@]2(C)[C@H]1CC[C@]2(O)C(=O)CO [Hydrocortisone (cortisol), Hydrocortisone]       satisfied

Given C[C@]12CCC(=O)C=C1CC[C@@H]1[C@@H]2[C@@H](O)C[C@]2(C=O)[C@@H](C(=O)CO)CC[C@@H]12 , state whether its GR potency is at least 0.8. not satisfied

Form field: GR potency at least 0.8? Entry: C[C@]12C=CC(=O)C=C1CC[C@@H]1[C@@H]2[C@@H](O)C[C@@]2(C)[C@H]1CC[C@]2(O)C(=O)CO satisfied

----------
biological target: mineralocorticoid receptor (Homo sapiens, UniProt P08235); assay: Mineralocorticoid receptor activity (MR potency) of corticosterones; conditions: relative potency, hydrocortisone (cortisol) = 1
Sequence (P08235 whole entry, species assumed): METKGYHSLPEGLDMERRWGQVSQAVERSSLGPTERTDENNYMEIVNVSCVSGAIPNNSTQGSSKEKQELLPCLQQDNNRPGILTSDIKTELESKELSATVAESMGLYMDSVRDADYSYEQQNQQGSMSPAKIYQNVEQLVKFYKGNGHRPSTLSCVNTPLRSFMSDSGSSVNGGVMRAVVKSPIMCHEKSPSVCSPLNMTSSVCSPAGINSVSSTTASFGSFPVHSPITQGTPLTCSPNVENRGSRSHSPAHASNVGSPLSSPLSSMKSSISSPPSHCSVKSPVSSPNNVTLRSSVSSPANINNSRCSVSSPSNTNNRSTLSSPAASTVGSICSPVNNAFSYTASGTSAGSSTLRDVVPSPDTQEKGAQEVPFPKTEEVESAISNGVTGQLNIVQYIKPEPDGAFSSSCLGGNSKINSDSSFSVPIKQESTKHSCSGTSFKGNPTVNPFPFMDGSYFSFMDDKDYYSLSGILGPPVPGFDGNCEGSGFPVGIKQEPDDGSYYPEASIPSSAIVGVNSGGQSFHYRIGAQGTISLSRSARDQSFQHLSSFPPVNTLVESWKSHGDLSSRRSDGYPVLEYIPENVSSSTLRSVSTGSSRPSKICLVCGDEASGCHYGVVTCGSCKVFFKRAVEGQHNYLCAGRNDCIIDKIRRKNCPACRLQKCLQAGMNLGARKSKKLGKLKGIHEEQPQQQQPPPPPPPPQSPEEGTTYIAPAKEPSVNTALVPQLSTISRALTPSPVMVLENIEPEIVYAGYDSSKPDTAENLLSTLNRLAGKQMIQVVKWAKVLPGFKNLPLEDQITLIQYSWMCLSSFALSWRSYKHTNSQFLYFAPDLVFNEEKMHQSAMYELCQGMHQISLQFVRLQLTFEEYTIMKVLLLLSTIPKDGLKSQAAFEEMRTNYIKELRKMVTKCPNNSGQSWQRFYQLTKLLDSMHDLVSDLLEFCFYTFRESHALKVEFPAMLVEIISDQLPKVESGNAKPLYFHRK
Documented MR potency across a set of compounds

Some solved entries appear below for comparison.
In [3]: df
Out[3]:
                                   compound                               test_target  observation_type  recorded_result
0  CC(=O)OCC(=O)[C@H]1CC[C@H]2[C@@H]3CCC4=CC(=O)CC[C@]4(C)[C@H]3CC[C@]12C [DCSA, deoxycorticosterone acetate]  mineralocorticoid receptor (Homo sapiens, UniProt P08235)        MR potency               20
1  C[C@]12C=CC(=O)C=C1CC[C@@H]1[C@@H]2C(=O)C[C@@]2(C)[C@H]1CC[C@]2(O)C(=O)CO  mineralocorticoid receptor (Homo sapiens, UniProt P08235)        MR potency              0.8
2  C[C@]12C=CC(=O)C=C1CC[C@H]1[C@@H]3C[C@@H](O)[C@](O)(C(=O)CO)[C@@]3(C)C[C@H](O)[C@@]12F  mineralocorticoid receptor (Homo sapiens, UniProt P08235)        MR potency                0
3  C[C@]12CCC(=O)C=C1CC[C@@H]1[C@@H]2[C@@H](O)C[C@@]2(C)[C@H]1CC[C@]2(O)C(=O)CO [Hydrocortisone (cortisol), Hydrocortisone]  mineralocorticoid receptor (Homo sapiens, UniProt P08235)        MR potency                1
4  C[C@]12C=CC(=O)C=C1CC[C@@H]1[C@@H]2[C@@H](O)C[C@@]2(C)[C@H]1CC[C@]2(O)C(=O)CO  mineralocorticoid receptor (Homo sapiens, UniProt P08235)        MR potency              0.8

The value of MR potency measured for the compound C[C@]12CCC(=O)C=C1CC[C@@H]1[C@@H]2C(=O)C[C@@]2(C)[C@H]1CC[C@]2(O)C(=O)CO turned out to be 0.8

Form: compound = C[C@]12CCC(=O)C=C1CC[C@@H]1[C@@H]2[C@@H](O)C[C@]2(C=O)[C@@H](C(=O)CO)CC[C@@H]12 ; MR potency = 200-1000

Record summary for CC(=O)OCC(=O)[C@@]1(O)CC[C@H]2[C@@H]3CCC4=CC(=O)CC[C@]4(C)[C@@]3(F)[C@@H](O)C[C@@]21C [Fludrocortisone acetate] : reported MR potency = 200

----------
assay: Stability of drug aqueous solutions under autoclave conditions; assay type: physicochemical; conditions: saturated solution, 121° C./30 min
Observation Type: stability of aqueous solution to autoclave conditions

Molecule	Recorded Result
C[C@]12CC[C@H]3[C@@H](CCC4=CC(=O)CC[C@@]43C)[C@@H]1CC[C@@H]2C(=O)CO [DCS, Deoxycorticosterone]	stable
C[C@]12CCC(=O)C=C1CC[C@@H]1[C@@H]2CC[C@@]2(C)[C@H]1CC[C@]2(O)C(=O)CO [11-DC, 11-deoxycortisol]	stable

----------
Assay: physchem
Conditions: aqueous with cosolvent or surfactant or cyclodextrin, thermodynamic from solid
Source text: FIG. 1: Solubility enhancement for MR compounds and TA in saline with addition of hydroxy propyl β-cyclodextrin (data are mean±sd, n=3). Top: FLU and TA; Bottom: 11-DC; DCS and DCSA.
Observation Type: solubility

Record CC(=O)OCC(=O)[C@H]1CC[C@H]2[C@@H]3CCC4=CC(=O)CC[C@]4(C)[C@H]3CC[C@]12C [DCSA, deoxycorticosterone acetate] . Reported solubility: > 6000 µg/mL
